Test system: NCI-H460dnp53 cell line
Assay: MTS cell viability assay, CHK-PARP combination, NCI-H460dnp53
Assay type: cell-based
Conditions: 96 h, constant CHK inhibitor 0.33 uM, simultaneous addition, 4 days, 3 experiments, read-out: IC50 of PARP inhibitor, CHK inhibitor + PARP inhibitor simultaneous
MEASURED ENDPOINT: IC50 (µM)
Expressed in µM, but write only the number.

Task item: # get_value(readout='IC50', item= `O=C(c1cc(Cc2n[nH]c(=O)c3ccccc23)ccc1F)N1CCN(C(=O)C2CC2)CC1` )
Reply: 1.9

###

System: NCI-H460dnp53 cell line
Experiment: MTS cell viability assay, CHK-PARP combination, NCI-H460dnp53
Assay type: cell-based
Conditions: 96 h, single agent, 4 days exposure, representative, 3 experiments, read-out: IC50 of PARP inhibitor alone
MEASURED ENDPOINT: IC50 (µM)
Give just the numeric value; µM need not be written.

Task item: I have this compound here, `O=C(c1cc(Cc2n[nH]c(=O)c3ccccc23)ccc1F)N1CCN(C(=O)C2CC2)CC1` , and I need its recorded IC50.
Reply: 17.6

###

Tested on: SW620 cell line
Assay: MTS cell viability assay, CHK-PARP combination, SW620
Type: cell-based
Conditions: Homo sapiens, SW-620, 96 h, constant CHK inhibitor 0.28 uM, simultaneous, 4 days, from 2 independent experiments, not directly comparable, read-out: IC50 of PARP inhibitor, CHK inhibitor + PARP inhibitor simultaneous
MEASURED ENDPOINT: IC50
A bare number is not enough; add the unit after it.

Task item: Find the recorded IC50 belonging to O=C(c1cc(Cc2n[nH]c(=O)c3ccccc23)ccc1F)N1CCN(C(=O)C2CC2)CC1 [PARP inhibitor] and report it.
Reply: 5.8 µM

Numbers sourced from patent US20100249112A1.
